Molecular target: Beta-secretase 1 (Homo sapiens)
Assay: Inhibition of BACE
endpoint: IC50 (nM)

Illustrative cases are given below, each with its answer.
INSERT INTO assay_data (given_smiles, target_under_test, endpoint, observed_measurement) VALUES
  ('CC(=O)N[C@@H](Cc1cccc(C(F)(F)F)c1)[C@H](O)CN[C@H]1CC2(CCC2)Oc2ncc(CC(C)(C)C)cc21', 'Beta-secretase 1 (Homo sapiens)', 'IC50', 2.4),
  ('CC(=O)N[C@@H](Cc1ccc(F)c(C#N)c1)[C@H](O)CN[C@H]1CC2(CCC2)Oc2ncc(CC(C)(C)C)cc21', 'Beta-secretase 1 (Homo sapiens)', 'IC50', 2.4);

(I) CC(=O)N[C@@H](Cc1ccccc1F)[C@H](O)CN[C@H]1CC2(CCC2)Oc2ncc(CC(C)(C)C)cc21
(II) CC(=O)N[C@@H](Cc1cc(F)cc(F)c1)[C@H](O)CN[C@H]1CC2(CCC2)Oc2ncc(CC(C)(C)C)cc21
Qu. Out of I and II , name the one with the higher IC50. State your choice using its label.
Ans. II
(II: 6.9 nM, I: 3.6 nM)

----------
Assay: Half life in rat at 2 mg/kg, iv
Type: ADME, organism-based
Set-up: dose 2 mg/kg, route intravenous
Settings: in vivo
endpoint: half-life (h)
Give the quantity in h, number only.

Qu. Retrieve half-life measured for `CC(=O)N[C@@H](Cc1ccc(F)cc1)[C@H](O)CN[C@H]1CC2(CCC2)Oc2ncc(CC(C)(C)C)cc21` and print it.
Ans. 7.2

----------
Biological target: Beta-secretase 1 (Homo sapiens, UniProt P56817)
Sequence (P56817 whole entry): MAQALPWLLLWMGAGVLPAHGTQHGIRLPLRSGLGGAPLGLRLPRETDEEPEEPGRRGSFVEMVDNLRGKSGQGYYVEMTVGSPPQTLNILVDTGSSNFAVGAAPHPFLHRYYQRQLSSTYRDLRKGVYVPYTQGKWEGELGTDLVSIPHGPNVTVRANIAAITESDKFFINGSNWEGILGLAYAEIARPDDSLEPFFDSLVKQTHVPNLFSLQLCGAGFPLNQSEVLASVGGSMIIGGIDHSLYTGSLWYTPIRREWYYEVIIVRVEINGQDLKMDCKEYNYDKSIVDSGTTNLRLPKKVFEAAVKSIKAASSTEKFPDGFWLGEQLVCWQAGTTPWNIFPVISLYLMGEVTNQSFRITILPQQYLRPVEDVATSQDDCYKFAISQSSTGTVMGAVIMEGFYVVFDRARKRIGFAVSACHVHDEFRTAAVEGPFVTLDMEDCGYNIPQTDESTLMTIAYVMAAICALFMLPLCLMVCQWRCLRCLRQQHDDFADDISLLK
Assay: Inhibition of BACE
endpoint: IC50 (nM)

INSERT INTO assay_data (given_smiles, observed_measurement) VALUES
  ('CC(=O)N[C@@H](Cc1ccccc1)[C@H](O)CN[C@H]1CC2(CCC2)Oc2ncc(CC(C)(C)C)cc21', 5.8),
  ('CC(=O)N[C@@H](Cc1ccc(F)cc1F)[C@H](O)CN[C@H]1CC2(CCC2)Oc2ncc(CC(C)(C)C)cc21', 6.5),
  ('CC(=O)N[C@@H](Cc1ccc(C)c(F)c1)[C@H](O)CN[C@H]1CC2(CCC2)Oc2ncc(CC(C)(C)C)cc21', 0.99),
  ('CC(=O)N[C@@H](Cc1ccc(F)c(OC(F)(F)F)c1)[C@H](O)CN[C@H]1CC2(CCC2)Oc2ncc(CC(C)(C)C)cc21', 2.1),
  ('CC(=O)N[C@@H](Cc1ccc(F)c(C)c1)[C@H](O)CN[C@H]1CC2(CCC2)Oc2ncc(CC(C)(C)C)cc21', 4);

(A) CC(=O)N[C@@H](Cc1ccc(Cl)cc1)[C@H](O)CN[C@H]1CC2(CCC2)Oc2ncc(CC(C)(C)C)cc21
(B) COc1ccc(C[C@H](NC(C)=O)[C@H](O)CN[C@H]2CC3(CCC3)Oc3ncc(CC(C)(C)C)cc32)cc1F
Qu. Out of A and B , name the one with the higher IC50. State your choice using its label.
Ans. A

----------
Assay: Volume of distribution at steady state in rat at 2 mg/kg, iv
Format: ADME, organism-based
Set-up: dose 2 mg/kg, route intravenous
Conditions: in vivo, read-out: Vdss
endpoint: Vd (L/kg)
Give the quantity in L/kg, number only.

Qu. Retrieve Vd measured for `CC(=O)N[C@@H](Cc1ccc(F)cc1)[C@H](O)CN[C@H]1CC2(CCC2)Oc2ncc(CC(C)(C)C)cc21` and print it.
Ans. 1.6
